Consider the following IC50 data for Serine/threonine-protein kinase mTOR (Homo sapiens, UniProt P42345), collected from several reports.

Use the examples below as a reference point.
>  <molecule>
Cn1cc(-c2cc(-c3ccc(N)cc3)ccn2)n(-c2ccc(N3CCNCC3)c(C(F)(F)F)c2)c1=O

>  <IC50>
> 10000 nM

$$$$
>  <molecule>
CC(=O)Nc1cccc(-c2ccc3c(N4CCOCC4)nc(-c4ccc(NC(=O)Nc5ccc(C(=O)N(C)C)cc5)cc4)nc3c2)c1

>  <IC50>
< 50 nM

$$$$
>  <molecule>
CC(c1ccccc1)n1c(=O)[nH]c2ncc(-c3ccc4ncccc4c3)nc21 (centres unmarked)

>  <IC50>
5100 to 10000 nM

$$$$

**Q:** # get_value(readout='IC50', item= "O=c1[nH]c2ncc(-c3cnc4[nH]cc(Cl)c4c3)cc2n1CC1CCOCC1" )
**A:** < 50 nM

----------
pIC50: −log10 of the molar value.
Literature pIC50 values, system: Serine/threonine-protein kinase mTOR (Homo sapiens, UniProt P42345).

Example entries begin here.
>  <smiles>
Cc1nn(CC(=O)N2CCN(C)CC2)cc1-n1c(=O)n(C)c2cnc3ccc(-c4ccccc4)cc3c21

>  <pIC50>
7.00

$$$$
>  <smiles>
C[C@H]1COCCN1c1nc(-c2ccc(NC(=O)NCCCF)cc2)nc2c1CS(=O)(=O)C2

>  <pIC50>
6.00 to 7.00

$$$$
>  <smiles>
COc1cccc(-c2ccc3c(N4CCOCC4)nc(-c4ccc(NC(=O)Nc5ccc(C(=O)N(C)C)cc5)cc4)nc3c2)c1

>  <pIC50>
6.70 to 7.30

$$$$
>  <smiles>
Cn1cc(-c2cc(-c3cnc4[nH]ccc4c3)ccn2)n(-c2ccccc2OC(F)(F)F)c1=O

>  <pIC50>
7.00 to 10.00

$$$$
>  <smiles>
CC(C)(Cc1ccccc1-c1cncnc1)Nc1nc(N2CCOCC2)nc(-n2c(C(F)F)nc3ccccc32)n1

>  <pIC50>
< 6.30

$$$$

**Q:** State the recorded pIC50 for this entry: "CN(C)C(=O)c1ccc(NC(=O)Nc2ccc(-c3nc(N4CCOCC4)c4cc(F)c(-c5ccco5)cc4n3)cc2)cc1"
**A:** 6.70 to 7.30

**Q:** Look up pIC50 for this compound: "Nc1ncc(-c2ccc3ncc4nnn(-c5ccc6[nH]ncc6c5)c4c3c2)cc1C(F)(F)F"
**A:** > 7.00

----------
Collected from the literature: IC50 of various compounds toward Serine/threonine-protein kinase mTOR (Homo sapiens, UniProt P42345).

# count of solved cases: 3
>  <smiles>
O=c1[nH]c2ncc(-c3cnc4[nH]ccc4c3)cc2n1CC1CC1

>  <assayTarget>
Serine/threonine-protein kinase mTOR (Homo sapiens, UniProt P42345)

>  <experimentalReadout>
IC50

>  <resultValue>
< 50 nM

$$$$
>  <smiles>
NC(=O)c1nc(-c2cccnc2)nc2c1[nH]c(=O)n2[C@H]1CC[C@H](O)CC1

>  <assayTarget>
Serine/threonine-protein kinase mTOR (Homo sapiens, UniProt P42345)

>  <experimentalReadout>
IC50

>  <resultValue>
100 to 5000 nM

$$$$
>  <smiles>
Cc1nc(N)ncc1-c1nc(N2CCOCC2)c2nc(NCCN3CCOCC3)n(CC3CC3)c2n1

>  <assayTarget>
Serine/threonine-protein kinase mTOR (Homo sapiens, UniProt P42345)

>  <experimentalReadout>
IC50

>  <resultValue>
≥ 500 nM

$$$$

**Q:** For "CCN(C)c1cncc(-c2ccc3ncc4c(c3c2)n(-c2cn(C)nc2C)c(=O)n4C)c1" , what is its reported IC50?
**A:** 15 nM

----------
Compiled from multiple publications: IC50 readings for Serine/threonine-protein kinase mTOR (Homo sapiens).

Worked examples follow.
>  <compound>
CCNc1cc(-c2ccc3ncc4c(c3c2)n(-c2c(C)nn(C)c2C)c(=O)n4C)cnc1CO

>  <IC50>
0.022 µM

$$$$
>  <compound>
COc1ncc(-c2ccc3nccc(-n4cncn4)c3c2)cc1NS(=O)(=O)c1ccc(F)cc1F

>  <IC50>
0.0011 µM

$$$$
>  <compound>
Cc1ccncc1-c1ccc2c(N3CCOCC3)nc(-c3ccc(NC(=O)Nc4ccc(C(=O)N(C)C)cc4)cc3)nc2c1

>  <IC50>
< 0.05 µM

$$$$
>  <compound>
CS(=O)(=O)N1CCN(c2nc3c(N4CCOCC4)nc(-c4cnc(N)nc4)nc3n2CC2CCOC2)CC1 (stereo not shown)

>  <IC50>
0.01 to 0.03 µM

$$$$
>  <compound>
CN(C)C(=O)c1ccc(NC(=O)Nc2ccc(-c3nc(N4CCOCC4)c4ncc(-c5cnn(C)c5)cc4n3)cc2)cc1F

>  <IC50>
< 0.05 µM

$$$$
>  <compound>
CCCC(=O)N1CCC(n2nnc3cnc4ccc(-c5cnc(N)c(C(F)(F)F)c5)nc4c32)CC1

>  <IC50>
< 0.1 µM

$$$$

**Q:** API: value(readout= IC50, system= Serine/threonine-protein kinase mTOR (Homo sapiens), query= "Nc1ncc(-c2nc(N3CCOCC3)c3ncc(-c4cccc(NC(=O)C5CCCC5)c4)cc3n2)cn1" )
**A:** < 0.05 µM

----------
Below: compounds with pIC50 recorded for Serine/threonine-protein kinase mTOR (Homo sapiens, UniProt P42345) in separate published works.
pIC50: −log10 of the molar value.

# count of solved cases: 3
>  <smiles>
Nc1cc(C(F)(F)F)c(-c2nc(N3CCOCC3)c3nc(-c4cccc(NS(=O)(=O)c5c(F)cccc5F)c4F)ccc3n2)cn1

>  <experimentalReadout>
pIC50

>  <resultValue>
7.00 to 9.00

$$$$
>  <smiles>
Cn1cc(-c2cc(-c3cnc4[nH]ccc4c3)ccn2)n(-c2ccccc2)c1=O

>  <experimentalReadout>
pIC50

>  <resultValue>
5.00 to 7.00

$$$$
>  <smiles>
COc1ncc(-c2ccc3ncc4c(c3c2)n(-c2cn(C)nc2Cl)c(=O)n4C)cc1N

>  <experimentalReadout>
pIC50

>  <resultValue>
8.52

$$$$

In the following, a different compound is considered.
**Q:** // pIC50 lookup, key: "CCN(CC)CCn1cnc2c(-c3cccc(O)c3)nc(N3CCOCC3)nc21"
**A:** < 5.30

----------
# pIC50 against Serine/threonine-protein kinase mTOR (Homo sapiens), merged from multiple literature sources
pIC50: −log10 of the molar value.

>  <compound>
COc1cccc(-c2ccc3c(N4CCOCC4)nc(-c4ccc(NC(=O)Nc5ccc(C(=O)N(C)C)cc5)cc4)nc3c2)n1

>  <pIC50>
6.70 to 7.30

$$$$

**Q:** What is its pIC50 for Serine/threonine-protein kinase mTOR (Homo sapiens)? Entry: "CCOc1ccc(-c2ccc3ncc4c(c3c2)n(-c2cn(C)nc2C)c(=O)n4C)cn1"
**A:** 7.96

**Q:** // fetch Serine/threonine-protein kinase mTOR (Homo sapiens) pIC50 for "CN1CCN(c2cc(-c3ccccc3CC(C)(C)Nc3nc(N4CCOCC4)nc(-n4c(C(F)F)nc5ccccc54)n3)ccn2)CC1"
**A:** < 6.30

**Q:** // lookup pIC50 | system=Serine/threonine-protein kinase mTOR (Homo sapiens) | key= "CC(=O)N1CCN(c2nc3c(N4CCOC[C@@H]4C)nc(-c4cnc(N)nc4)nc3n2CC(C)C)CC1"
**A:** 7.52 to 8.00

**Q:** Reported pIC50 for Serine/threonine-protein kinase mTOR (Homo sapiens), given "Cc1nn(C)cc1-n1c(=O)n(C)c2cnc3ccc(-c4cncc(NC(C)C)c4)cc3c21" ?
**A:** 8.52

**Q:** Under Serine/threonine-protein kinase mTOR (Homo sapiens): pIC50 value of "Cn1cc(-c2cc(-c3cnc4[nH]c(C(F)(F)F)cc4c3)ccn2)n(-c2ccc(C(C)(C)C#N)cc2)c1=O" ?
**A:** 7.00 to 10.00

----------
Record: compiled IC50 on Serine/threonine-protein kinase mTOR (Homo sapiens) from multiple reports.
Dear colleague, please return just the value in nM, with no unit written.

Worked cases, answers included:
>  <smiles>
C=CC(=O)Nc1cc(-n2c(=O)ccc3cnc4ccc(-c5cnn(C)c5)cc4c32)ccc1C

>  <IC50, nM>
173

$$$$
>  <smiles>
Cc1nn(C)cc1-n1c(=O)n(C)c2cnc3ccc(-c4cnc5c(c4)nc(C)n5C)cc3c21

>  <IC50, nM>
160

$$$$
>  <smiles>
Cc1nn(C(C)C)cc1-n1c(=O)n(C)c2cnc3ccc(-c4cncc(C(C)(C)O)c4)cc3c21

>  <IC50, nM>
35

$$$$

**Q:** Param item = "CCOc1ccc(-c2ccc3ncc4c(c3c2)n(-c2cn(CC)nc2C)c(=O)n4C)cn1" ; retrieve measured IC50.
**A:** 17

**Q:** Consider the compound shown here: "Cc1nn(C)cc1-n1c(=O)n(C)c2cnc3ccc(-c4cnc(N)c(Cl)c4)cc3c21" What is its recorded IC50?
**A:** 9

**Q:** Item under review: "CNc1ccc(-c2ccc3ncc4c(c3c2)n(-c2cn(CC(=O)N(C)C)nc2C)c(=O)n4C)cn1" . Reported IC50?
**A:** 9

**Q:** For the compound "O=c1ccc2cnc3ccc(-c4cnc5[nH]ccc5c4)nc3c2n1-c1cccc(C(F)(F)F)c1" , what IC50 is on record?
**A:** 0.89

**Q:** Query: IC50; subject: "COc1ncc(-c2ccc3ncc(C#CCO)n3n2)cc1NS(=O)(=O)c1ccc(F)cc1"
**A:** 29
